Tested on: progesterone receptor
Experiment: Progesterone receptor assay: inhibition of [3H]R5020 binding, uterine cytosol
Parameters: species or system rat
Details: E^−6
Each record here notes measured % Inhibition Progesterone Receptor.
Please respond with the number in % and leave the unit unwritten.

Known results for compounds:
- COc1ccc(CC(=O)O[C@]2(C(C)=O)CCC3C4C=C(C)C5=CC(=O)C=C[C@]5(C)C4CC[C@@]32C)cc1 (some centres unmarked) [EM-1291]: 33
- CCCC(=O)OC1(C(C)=O)CCC2C3C=C(C)C4=CC(=O)CC(C)C4(C)C3CCC21C (centres unmarked) [CS-245]: 26
- CC(=O)O[C@]1(C(C)=O)CCC2C3C=C(C)C4=CC(=O)CC[C@]4(C)C3CC[C@@]21C (some centres unmarked) [megestrol acetate, reference compound]: 77
- CCC(=O)O[C@]1(C(C)=O)CCC2C3C=C(C)C4=CC(=O)C[C@H](C)[C@]4(C)C3CC[C@@]21C (some centres unmarked) [CS-243]: 27
- CCCCN(C)C(=O)[C@@]1(OC(C)=O)CCC2C3C=C(C)C4=CC(=O)CC[C@]4(C)C3CC[C@@]21C (some centres unmarked) [EM-1165]: 7

(Q) Given COC(=O)CCCC(=O)O[C@]1(C(C)=O)CC[C@H]2[C@@H]3C=C(C)C4=CC(=O)CC[C@]4(C)[C@H]3CC[C@@]21C [EM-1007] , state its recorded % Inhibition Progesterone Receptor.
(A) 0

(Q) Given CC(=O)O[C@]1(C(=O)N(C)C)CCC2C3C=C(C)C4=CC(=O)CC[C@]4(C)C3CC[C@@]21C (some centres unmarked) [EM-1159] , state its recorded % Inhibition Progesterone Receptor.
(A) 4

(Q) Given CC(=O)[C@@]1(OC(=O)CCCCF)CCC2C3C=C(C)C4=CC(=O)CC[C@]4(C)C3CC[C@@]21C (some centres unmarked) [EM-1195-CS] , state its recorded % Inhibition Progesterone Receptor.
(A) 70

* * *

Test system: progesterone receptor
Experiment: Progesterone receptor assay: inhibition of [3H]R5020 binding, uterine cytosol
Set-up: species or system rat
Settings: E^−8
Measured Property: % Inhibition Progesterone Receptor E^−8 (%)
Please respond with the number in % and leave the unit unwritten.

Known results for compounds:
- CC(=O)O[C@]1(C)C(=O)CCC2C3C=C(C)C4=CC(=O)C=C[C@]4(C)C3CC[C@@]21C (stereo partly shown) [CS-237]: 0
- CCC[C@]1(F)CC2C3C=CC4=CC(=O)CC[C@]4(C)C3CC[C@]2(C)C1=O (stereo partly shown) [EM-1183]: 9
- CC(C)C[C@@H]1CC2C3C=CC4=CC(=O)CC[C@]4(C)C3CC[C@]2(C)C1=O (stereo partly shown) [EM-1273-CS]: 0
- C[C@]12CCC(=O)C=C1C=C[C@@H]1[C@@H]2CC[C@]2(C)C(=O)C3(CC4CC4C3)C[C@@H]12 (stereo partly shown) [EM-1299]: 0
- CC12C=CC(=O)C=C1C=CC1C2CCC2(C)C(=O)C3(CCCCC3)CC12 (stereo not shown) [CS-204]: 0

(Q) Given CCC[C@@H]1CC2C3C=CC4=CC(=O)CC[C@]4(C)C3CC[C@]2(C)C1=O (stereo partly shown) [EM-1097] , state its recorded % Inhibition Progesterone Receptor E^−8.
(A) 2

(Q) Given CCCC(=O)O[C@]1(C)C(=O)CCC2C3C=C(C)C4=CC(=O)CC[C@]4(C)C3CC[C@@]21C (stereo partly shown) [EM-1078] , state its recorded % Inhibition Progesterone Receptor E^−8.
(A) 0

* * *

Target: estrogen receptor (Rattus norvegicus, UniProt P06211)
Construct: from tissue; host or cells: uterine cytosol of gonadectomized female Sprague-Dawley rats
Sequence (P06211 whole entry): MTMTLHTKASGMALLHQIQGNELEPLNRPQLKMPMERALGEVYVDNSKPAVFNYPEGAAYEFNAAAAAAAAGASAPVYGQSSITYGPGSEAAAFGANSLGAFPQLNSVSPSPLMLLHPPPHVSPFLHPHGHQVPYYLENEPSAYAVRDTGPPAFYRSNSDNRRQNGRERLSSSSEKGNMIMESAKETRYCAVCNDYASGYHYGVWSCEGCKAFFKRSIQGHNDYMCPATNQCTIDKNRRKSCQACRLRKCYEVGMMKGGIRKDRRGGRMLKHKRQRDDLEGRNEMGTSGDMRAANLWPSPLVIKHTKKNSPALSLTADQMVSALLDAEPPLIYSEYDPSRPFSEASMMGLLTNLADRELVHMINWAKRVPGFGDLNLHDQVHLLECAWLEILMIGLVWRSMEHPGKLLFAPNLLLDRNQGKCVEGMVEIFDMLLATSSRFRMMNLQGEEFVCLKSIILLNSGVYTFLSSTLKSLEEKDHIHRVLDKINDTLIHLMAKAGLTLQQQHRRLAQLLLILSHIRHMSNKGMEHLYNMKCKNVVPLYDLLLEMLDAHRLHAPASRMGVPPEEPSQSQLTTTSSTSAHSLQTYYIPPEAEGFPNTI
Assay: Estrogen receptor (ER) assay: inhibition of [3H]E2 binding, uterine cytosol
Details: Table 4′; E^−6
Measured Property: % Inhibition Estrogen Receptor E^−6
Form field: result (number plus unit)

• CCOc1ccc2c(c1)CCC1C2CC[C@@]2(C)C1CC[C@@]21CCC(C)(C)C(=O)O1 (stereo partly shown) = 0%

(Q) Given CC1CCC2(CCC3C4CCc5cc(O)c([N+](=O)[O-])cc5C4CCC32C)OC1=O (stereo not shown) [EM-1131] , state its recorded % Inhibition Estrogen Receptor E^−6.
(A) 3%

(Q) Given COc1ccc2c(c1)C(=O)CC1C3CCC4(CCC(C)(C)C(=O)O4)C3(C)CCC21O (stereo not shown) , state its recorded % Inhibition Estrogen Receptor E^−6.
(A) 0%

(Q) Given COc1cc2c(cc1C)C1CCC3(C)C(CCC34CCC(C)(C)C(=O)O4)C1CC2 (stereo not shown) , state its recorded % Inhibition Estrogen Receptor E^−6.
(A) 0%

* * *

Target: human type 3 17β-hydroxysteroid dehydrogenase (Homo sapiens, UniProt P37058)
Construct: expressed in transfected cells; host or cells: 293 cells, transient transfection; microsomal fraction (100 000×g pellet)
Sequence (P37058 whole entry): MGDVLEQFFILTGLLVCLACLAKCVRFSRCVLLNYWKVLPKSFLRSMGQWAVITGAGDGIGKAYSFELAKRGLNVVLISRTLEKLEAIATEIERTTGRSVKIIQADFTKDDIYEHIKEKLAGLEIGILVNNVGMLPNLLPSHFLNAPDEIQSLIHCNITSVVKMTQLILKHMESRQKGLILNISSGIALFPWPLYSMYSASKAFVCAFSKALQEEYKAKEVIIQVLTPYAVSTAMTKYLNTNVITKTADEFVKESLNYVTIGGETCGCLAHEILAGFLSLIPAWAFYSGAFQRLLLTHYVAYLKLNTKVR
Assay: Enzymatic assay for type 3 17β-HSD
Format: biochemical
Settings: 3.10^−7 M inhibitor
Each record here notes measured % of Inhibition of the Type 3 17β-HSD Activity.
Please respond with the number in % and leave the unit unwritten.

(Q) Given CSCOc1ccc2c(c1)CC[C@@H]1[C@@H]2CC[C@]2(C)C(=O)CC[C@@H]12 [EM-1066] , state its recorded % of Inhibition of the Type 3 17β-HSD Activity.
(A) 63

* * *

Assay: In vivo assay of oral bioavailability (plasma AUC 0-7 h by LCMS/MS)
Parameters: species or system male Sprague Dawley rats
Details: male, Sprague-Dawley [Crl:CD(SD)Br], rat, plasma, po, 0.5 mg; Table 4′; cell marked (8 h)
Measured Property: AUC(0-t) (ng·h/mL)
Please respond with the number in ng·h/mL and leave the unit unwritten.

(Q) Given C[C@]12CCC3c4cc([N+](=O)[O-])c(O)cc4CCC3C1CC[C@@]21CCCC(=O)O1 (stereo partly shown) , state its recorded AUC(0-t).
(A) 5.1

* * *

Molecular target: human type 5 17β-hydroxysteroid dehydrogenase (Homo sapiens)
Construct: screen again a human placental λgt11 cDNA to get the full length cDNA clone; expressed in transfected cells; host or cells: human embryonal kidney 293 cells (pCMV / pCMV-neo vector)
Sequence (P42330 whole entry): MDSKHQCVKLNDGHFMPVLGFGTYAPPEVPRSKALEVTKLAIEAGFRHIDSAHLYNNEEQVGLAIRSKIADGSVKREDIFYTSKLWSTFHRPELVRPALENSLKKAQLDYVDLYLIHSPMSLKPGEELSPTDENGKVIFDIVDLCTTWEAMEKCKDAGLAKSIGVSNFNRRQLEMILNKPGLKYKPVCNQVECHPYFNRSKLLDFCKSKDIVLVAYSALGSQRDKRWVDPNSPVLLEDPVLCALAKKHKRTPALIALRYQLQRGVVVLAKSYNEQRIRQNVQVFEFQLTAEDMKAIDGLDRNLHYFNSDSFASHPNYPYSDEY
Assay: Inhibition of human type 5 17β-HSD activity in transfected 293 cells
Type: cell-based
Conditions: read-out: Inhibition Type V 17β-HSD IC50
Each record here notes measured IC50.
Please respond with the number in nM and leave the unit unwritten.

Known results for compounds:
• CC(=O)O[C@]1(C(=O)N(C)C)CCC2C3C=C(C)C4=CC(=O)CC[C@]4(C)C3CC[C@@]21C (stereo partly drawn) = 14
• CCCC(=O)OC1(C(C)=O)CCC2C3C=C(C)C4=CC(=O)CC(C)C4(C)C3CCC21C (stereo not drawn) = 3.2
• CC(=O)O[C@]1(C(C)=O)CCC2C3C=C(C)C4=CC(=O)CC[C@]4(C)C3CC[C@@]21C (stereo partly drawn) [megestrol acetate, reference compound] = 17.4

(Q) API: value(readout= IC50, system= human type 5 17β-hydroxysteroid dehydrogenase (Homo sapiens), query= CC(=O)[C@@]1(OC(=O)CCCCF)CCC2C3C=C(C)C4=CC(=O)CC[C@]4(C)C3CC[C@@]21C (stereo partly drawn) )
(A) 4

(Q) API: value(readout= IC50, system= human type 5 17β-hydroxysteroid dehydrogenase (Homo sapiens), query= COc1ccc(CC(=O)O[C@]2(C(C)=O)CCC3C4C=C(C)C5=CC(=O)C=C[C@]5(C)C4CC[C@@]32C)cc1 (stereo partly drawn) )
(A) 7

(Q) API: value(readout= IC50, system= human type 5 17β-hydroxysteroid dehydrogenase (Homo sapiens), query= CCC(=O)O[C@]1(C(C)=O)CCC2C3C=C(C)C4=CC(=O)C[C@H](C)[C@]4(C)C3CC[C@@]21C (stereo partly drawn) )
(A) 3.5

* * *

Each record here notes measured % Inhibition Glucocorticoid Receptor E^−6.
Target: glucocorticoid receptor (Rattus norvegicus, UniProt P06536)
Construct: from tissue; host or cells: liver cytosol of male Sprague-Dawley rats
Sequence (P06536 whole entry): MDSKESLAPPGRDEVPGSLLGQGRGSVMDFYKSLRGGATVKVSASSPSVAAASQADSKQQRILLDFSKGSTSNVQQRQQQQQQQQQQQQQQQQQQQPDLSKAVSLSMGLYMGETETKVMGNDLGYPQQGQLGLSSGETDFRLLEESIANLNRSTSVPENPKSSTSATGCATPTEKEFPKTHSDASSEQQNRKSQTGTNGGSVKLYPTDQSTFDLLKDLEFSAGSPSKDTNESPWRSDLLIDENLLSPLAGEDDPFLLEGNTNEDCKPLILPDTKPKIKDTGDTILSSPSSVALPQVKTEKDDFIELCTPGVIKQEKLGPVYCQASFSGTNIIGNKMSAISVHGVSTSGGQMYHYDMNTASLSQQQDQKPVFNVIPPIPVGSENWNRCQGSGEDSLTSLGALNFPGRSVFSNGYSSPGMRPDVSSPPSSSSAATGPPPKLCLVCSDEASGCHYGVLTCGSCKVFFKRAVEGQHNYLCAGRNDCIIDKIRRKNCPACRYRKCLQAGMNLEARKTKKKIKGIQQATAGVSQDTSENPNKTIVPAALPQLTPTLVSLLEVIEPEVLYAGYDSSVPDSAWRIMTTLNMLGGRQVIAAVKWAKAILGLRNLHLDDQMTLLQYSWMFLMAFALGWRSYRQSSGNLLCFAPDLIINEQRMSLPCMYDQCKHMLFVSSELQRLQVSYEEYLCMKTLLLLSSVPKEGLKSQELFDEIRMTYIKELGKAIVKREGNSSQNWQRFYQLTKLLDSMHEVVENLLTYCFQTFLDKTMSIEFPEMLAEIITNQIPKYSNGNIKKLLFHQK
Assay: Glucocorticoid receptor assay: inhibition of [3H]-dexamethasone binding, liver cytosol
Settings: E^−6

Known results for compounds:
• CCCC(=O)O[C@]1(C)C(=O)CCC2C3C=C(C)C4=CC(=O)CC[C@]4(C)C3CC[C@@]21C (stereo partly drawn) = 94%
• C[C@]12CCC(=O)C=C1C=C[C@@H]1[C@@H]2CC[C@]2(C)C(=O)C3(CC4CC4C3)C[C@@H]12 (stereo partly drawn) = 0%

Next compound, please.
(Q) API: value(readout= % Inhibition Glucocorticoid Receptor E^−6, system= glucocorticoid receptor (Rattus norvegicus, UniProt P06536), query= CC(=O)O[C@]1(C)C(=O)CCC2C3C=C(C)C4=CC(=O)C=C[C@]4(C)C3CC[C@@]21C (stereo partly drawn) )
(A) 69%

* * *

Test system: Shionogi mouse mammary carcinoma cells
Experiment: Antiandrogenic activity: inhibition of DHT-induced proliferation of Shionogi cells
Assay type: cell-based
Conditions: Table 4′; DHT-induced proliferation, E^−7
Each record here notes measured Antiandrogenic Activity Shionogi, DHT E^−7.
Please respond with the number in % and leave the unit unwritten.

Known results for molecules:
- COC(=O)c1cc2c(cc1O)CCC1C2CCC2(C)C1CCC21CCC(C)(C)C(=O)O1 (stereo not shown): −11
- COCCOc1cc2c(cc1C(=O)O)C1CCC3(C)C(CCC34CCC(C)(C)C(=O)O4)C1CC2 (stereo not shown): 0

Next molecule, please.
(Q) Given CC1(C)CCC2(CCC3C4CCc5cc(O)c([N+](=O)[O-])cc5C4CCC32C)OC1=O (stereo not shown) , state its recorded Antiandrogenic Activity Shionogi, DHT E^−7.
(A) −30
